Sourced from the supplement of paper PMC10567573

B1: CHCHD6 (parent)
chain: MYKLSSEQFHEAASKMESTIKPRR

- Variants of: B1
- protocol_notes: protein stability index of a GFP-peptide fusion (GPS, HEK-293T) (PSI 1-6); higher = more stable;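 also: lentivirally expressed fusions sorted by FACS into six bins by GFP to DsRed ratio, PSI derived from sequencing read proportions per bin multiplied by bin number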
- cond: c terminus: a fixed tail appended
Please note: met applies when protein stability index is 4 or greater, and not met applies otherwise.

# macromolecule_sequence, category
records = [
    ("MYALSSEQFHEAASKMESTIKPRR [K3A]", "met"),
]

Threshold query (protein stability index >= 4) on MYKLSSEQFHEAASKMEQTIKPRR [S18Q] not met

Also MYKLSSERFHEAASKMESTIKPRR [Q8R] ? not met

Also MQKLSSEQFHEAASKMESTIKPRR [Y2Q] ? met

Also MYKLSSEQFHEAASKMESTIKPRC [R24C] ? not met

Also MYKLSSEQFHEAASDMESTIKPRR [K15D] ? met
